# target.system: SrtA (Staphylococcus aureus)
# Sequence (Q2FV99 60-206): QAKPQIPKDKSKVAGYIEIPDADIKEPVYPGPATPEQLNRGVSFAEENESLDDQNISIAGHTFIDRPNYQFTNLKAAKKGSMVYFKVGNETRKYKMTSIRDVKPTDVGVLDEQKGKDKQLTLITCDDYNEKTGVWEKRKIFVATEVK
observable: Kd (µM)

{"columns": ["molecule", "data.value"],
 "data": [
  ["O=C(/C=C/c1ccc(O)c(O)c1/C=C/c1ccc(O)c(O)c1)O[C@H](Cc1ccc(O)c(O)c1)C(=O)O [Sal A]", 21.5]
]}
